Consider the following compounds and their measured GI50 at 72 h readings.
# Experiment description: Cytotoxicity against human BJ cells assessed as growth inhibition after 72 hrs by resazurin dye-based fluorescence analysis
# Assay type: cell-based
Entry rule: numbers only, all in µM.

NCCCCNc1nc(Nc2ccc(Oc3nccs3)cc2)c2ncn(C3CCCC3)c2n1; 18.6

For NCCCCNc1nc(Nc2ccc(CN3CCOCC3)cc2)c2ncn(C3CCC(O)C3)c2n1 (stereo not given) , write its GI50 at 72 h. 4.9

For "NCCCCNc1nc(Nc2cccc(CN3CCOCC3)c2)c2ncn(C3CCCC3)c2n1" , write its GI50 at 72 h. 22

For "COc1ccc(-c2ccc(Nc3nc(N[C@H]4CC[C@H](N)CC4)nc4c3ncn4C3CCCC3)cn2)cc1" , write its GI50 at 72 h. 7.23

Just for reference, ChEMBL document CHEMBL4342414 is where these values come from.
